Overview of reported relative viability across a group of molecules:
Test system: NCI-H2085
Experiment: relative viability (nuclei count vs DMSO), 5 days (fraction); higher = more cells survive
Conditions: first compound 0.005 µM

Molecule	relative viability
CC1(C)CCC(c2ccc(Cl)cc2)=C(CN2CCN(c3ccc(C(=O)NS(=O)(=O)c4ccc(N[C@H](CCN5CCOCC5)CSc5ccccc5)c(S(=O)(=O)C(F)(F)F)c4)cc3)CC2)C1 [Navitoclax] + CS(=O)(=O)N1CCN(Cc2cc3nc(-c4cccc5[nH]ncc45)nc(N4CCOCC4)c3s2)CC1 [Pictilisib] (partner 1 µM)	0.449
CC1(C)CCC(c2ccc(Cl)cc2)=C(CN2CCN(c3ccc(C(=O)NS(=O)(=O)c4ccc(N[C@H](CCN5CCOCC5)CSc5ccccc5)c(S(=O)(=O)C(F)(F)F)c4)cc3)CC2)C1 [Navitoclax] + Cc1nc(Nc2ncc(C(=O)Nc3c(C)cccc3Cl)s2)cc(N2CCN(CCO)CC2)n1 [Dasatinib] (partner 0.075 µM)	0.234
CC1(C)CCC(c2ccc(Cl)cc2)=C(CN2CCN(c3ccc(C(=O)NS(=O)(=O)c4ccc(N[C@H](CCN5CCOCC5)CSc5ccccc5)c(S(=O)(=O)C(F)(F)F)c4)cc3)CC2)C1 [Navitoclax] + C[C@@H](Oc1cc(-c2cnn(C3CCNCC3)c2)cnc1N)c1c(Cl)ccc(F)c1Cl [Crizotinib] (partner 1 µM)	0.862
CC1(C)CCC(c2ccc(Cl)cc2)=C(CN2CCN(c3ccc(C(=O)NS(=O)(=O)c4ccc(N[C@H](CCN5CCOCC5)CSc5ccccc5)c(S(=O)(=O)C(F)(F)F)c4)cc3)CC2)C1 [Navitoclax] + Cc1nc(NC(=O)N2CCC[C@H]2C(N)=O)sc1-c1ccnc(C(C)(C)C(F)(F)F)c1 [Alpelisib] (partner 2 µM)	0.944
CC1(C)CCC(c2ccc(Cl)cc2)=C(CN2CCN(c3ccc(C(=O)NS(=O)(=O)c4ccc(N[C@H](CCN5CCOCC5)CSc5ccccc5)c(S(=O)(=O)C(F)(F)F)c4)cc3)CC2)C1 [Navitoclax] + Nc1nc2[nH]cc(CCc3ccc(C(=O)N[C@@H](CCC(=O)O)C(=O)O)cc3)c2c(=O)[nH]1 [Pemetrexed] (partner 0.2 µM)	0.812
CC1(C)CCC(c2ccc(Cl)cc2)=C(CN2CCN(c3ccc(C(=O)NS(=O)(=O)c4ccc(N[C@H](CCN5CCOCC5)CSc5ccccc5)c(S(=O)(=O)C(F)(F)F)c4)cc3)CC2)C1 [Navitoclax] + Nc1ncn([C@H]2C[C@H](O)[C@@H](CO)O2)c(=O)n1 [Decitabine] (partner 2 µM)	0.612
